# Test system: 997726-040-R-J2-PDC tumor spheroids, viability
# Experiment: Anticancer human tumor 997726-040-R-J2-PDC patient-derived squamous cell lung carcinoma cell line growth inhibition [PI3K]
# Measurement Setup: second compound 0.01 µM; first compound 1 µM; active compounds read low; spheroids with HUVEC and MSC
# Excerpt: Combinatorial screen of targeted agents with the PI3K inhibitors inavolisib, alpelisib, duvelisib, and copanlisib in multi-cell type tumor spheroids A high-throughput screen of multi-cell type tumor spheroids was designed to identify active combinations of targeted small molecules and PI3K pathway inhibitors. […] Compounds. […] If the clinical Cmax for an agent had not been determined, the highest concentration tested was 10 microM. […]
Each record here notes measured viability, T/C.
A number alone suffices; assume %.

Some compounds with recorded viability, T/C:
Cn1ncc(Cl)c1-c1cc(C(=O)NC(CN)Cc2cccc(F)c2)sc1Cl (centres undefined) + CC(Nc1ccc2c(c1)OCCn1cc(N3C(=O)OCC3C(F)F)nc1-2)C(N)=O : 14.8
C[C@@H](NC(=O)c1ncnc(N)c1Cl)c1ncc(C(=O)Nc2cc(C(F)(F)F)c(Cl)cn2)s1 + COc1c(OCCCN2CCOCC2)ccc2c3n(c(=NC(=O)c4cnc(N)nc4)nc12)CCN3 : 68.9
C#Cc1c(F)ccc2cc(O)cc(-c3ncc4c(N5CC6CCC(C5)N6)nc(OCC56CCCN5CC(F)C6)nc4c3F)c12 (centres undefined) + CC(Nc1ccc2c(c1)OCCn1cc(N3C(=O)OCC3C(F)F)nc1-2)C(N)=O : 75

Give the reported viability, T/C for this compound. CNC(=O)c1ccc(N2C(=S)N(c3ccc(C#N)c(C(F)(F)F)c3)C(=O)C2(C)C)cc1F + COc1c(OCCCN2CCOCC2)ccc2c3n(c(=NC(=O)c4cnc(N)nc4)nc12)CCN3
54.8

* * *

# Test system: 997726-040-R-J2-PDC tumor spheroids, viability
# Experiment: Anticancer human tumor 997726-040-R-J2-PDC cell line growth inhibition [PI3K]; active = viability on the fitted dose curve at most 10% of control; inactive = the rest;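 also: spheroids exposed to compounds for seven days before readout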
# Measurement Setup: second compound 10 µM; first compound 10 µM; spheroids with HUVEC and MSC
Use one of these outcomes when replying: active, inactive

The following compounds have reported results that may help.
CC1(C)CCC(CN2CCN(c3ccc(C(=O)NS(=O)(=O)c4ccc(NCC5CCOCC5)c([N+](=O)[O-])c4)c(Oc4cnc5[nH]ccc5c4)c3)CC2)=C(c2ccc(Cl)cc2)C1 + Cc1nc(NC(=O)N2CCCC2C(N)=O)sc1-c1ccnc(C(C)(C)C(F)(F)F)c1 : active
CC(C)NCC(C(=O)N1CCN(c2ncnc3c2C(C)CC3O)CC1)c1ccc(Cl)cc1 (stereo unspecified) + CC(Nc1ncnc2nc[nH]c12)c1cc2cccc(Cl)c2c(=O)n1-c1ccccc1 : active
CNC(=O)c1ccc(N2C(=S)N(c3ccc(C#N)c(C(F)(F)F)c3)C(=O)C2(C)C)cc1F + CC(Nc1ncnc2nc[nH]c12)c1cc2cccc(Cl)c2c(=O)n1-c1ccccc1 : inactive

Could you check what this test reported for Cn1nccc1Nc1nccc(-c2ccn(C(CO)c3ccc(Cl)c(F)c3)c(=O)c2)n1 (stereo unspecified) + CC(Nc1ncnc2nc[nH]c12)c1cc2cccc(Cl)c2c(=O)n1-c1ccccc1 ?
inactive

Could you check what this test reported for CCCS(=O)(=O)Nc1ccc(F)c(C(=O)c2c[nH]c3ncc(-c4ccc(Cl)cc4)cc23)c1F + Cc1nc(NC(=O)N2CCCC2C(N)=O)sc1-c1ccnc(C(C)(C)C(F)(F)F)c1 ?
inactive

Could you check what this test reported for CC(Cn1ccc(-c2ccc(C#N)c(Cl)c2)n1)NC(=O)c1cc(C(C)O)[nH]n1 (stereo unspecified) + Cc1nc(NC(=O)N2CCCC2C(N)=O)sc1-c1ccnc(C(C)(C)C(F)(F)F)c1 ?
inactive
